Values were extracted from patent US6686350B1.

Molecular target: VLA-4 (Homo sapiens, UniProt P05556+P13612)
Construct: endogenous in cells
Sequence (P13612 34-1032): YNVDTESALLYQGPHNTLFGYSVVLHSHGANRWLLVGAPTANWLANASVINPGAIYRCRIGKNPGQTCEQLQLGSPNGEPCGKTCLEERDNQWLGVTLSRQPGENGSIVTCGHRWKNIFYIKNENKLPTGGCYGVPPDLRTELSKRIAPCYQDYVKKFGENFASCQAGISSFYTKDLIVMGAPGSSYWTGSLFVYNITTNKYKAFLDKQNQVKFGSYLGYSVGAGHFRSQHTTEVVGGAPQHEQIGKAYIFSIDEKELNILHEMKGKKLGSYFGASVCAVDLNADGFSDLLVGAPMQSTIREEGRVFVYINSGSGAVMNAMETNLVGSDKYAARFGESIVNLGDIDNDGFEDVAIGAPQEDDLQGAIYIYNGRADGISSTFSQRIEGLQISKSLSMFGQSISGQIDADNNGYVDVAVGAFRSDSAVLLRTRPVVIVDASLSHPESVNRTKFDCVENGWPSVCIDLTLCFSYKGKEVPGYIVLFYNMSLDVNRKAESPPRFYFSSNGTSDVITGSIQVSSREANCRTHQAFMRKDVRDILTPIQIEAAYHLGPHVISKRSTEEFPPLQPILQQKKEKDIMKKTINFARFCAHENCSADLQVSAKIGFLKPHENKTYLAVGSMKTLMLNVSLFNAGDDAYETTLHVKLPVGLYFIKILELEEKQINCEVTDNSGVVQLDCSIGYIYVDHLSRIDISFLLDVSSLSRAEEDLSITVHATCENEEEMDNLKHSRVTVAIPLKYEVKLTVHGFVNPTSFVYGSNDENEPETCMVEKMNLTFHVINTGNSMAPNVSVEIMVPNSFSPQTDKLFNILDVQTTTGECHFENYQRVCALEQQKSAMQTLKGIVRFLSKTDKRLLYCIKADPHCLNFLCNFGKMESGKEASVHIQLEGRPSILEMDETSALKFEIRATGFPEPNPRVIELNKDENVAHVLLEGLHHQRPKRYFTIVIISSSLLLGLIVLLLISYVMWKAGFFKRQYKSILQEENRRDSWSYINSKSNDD
Sequence (P05556 21-798): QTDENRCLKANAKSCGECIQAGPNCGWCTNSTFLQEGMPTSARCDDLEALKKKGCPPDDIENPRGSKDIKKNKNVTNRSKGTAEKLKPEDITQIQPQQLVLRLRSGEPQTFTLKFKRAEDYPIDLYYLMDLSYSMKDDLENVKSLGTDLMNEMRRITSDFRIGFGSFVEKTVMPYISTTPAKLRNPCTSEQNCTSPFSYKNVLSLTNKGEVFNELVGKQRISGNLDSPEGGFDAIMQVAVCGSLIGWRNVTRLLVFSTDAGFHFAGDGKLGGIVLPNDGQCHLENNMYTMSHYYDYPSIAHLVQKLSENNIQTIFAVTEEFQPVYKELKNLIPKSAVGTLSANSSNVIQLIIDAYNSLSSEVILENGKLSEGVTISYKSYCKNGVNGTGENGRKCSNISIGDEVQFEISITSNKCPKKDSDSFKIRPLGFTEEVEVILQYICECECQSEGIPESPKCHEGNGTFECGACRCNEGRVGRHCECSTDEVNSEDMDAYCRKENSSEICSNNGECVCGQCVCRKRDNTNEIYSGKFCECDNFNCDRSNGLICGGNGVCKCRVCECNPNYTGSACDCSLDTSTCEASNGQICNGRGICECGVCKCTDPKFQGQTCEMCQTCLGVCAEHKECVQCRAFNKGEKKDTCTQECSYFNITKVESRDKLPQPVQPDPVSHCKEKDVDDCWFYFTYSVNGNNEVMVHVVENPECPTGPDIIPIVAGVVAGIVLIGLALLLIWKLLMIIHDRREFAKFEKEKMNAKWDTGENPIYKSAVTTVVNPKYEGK
Experiment: VLA-4 direct binding assay (VCAM-IgG alkaline phosphatase conjugate binding to Jurkat cells)
Details: Table 1, Structure-Activity; assay and unit inferred; read-out: Act
Description: A direct binding assay may also be employed to quantitate the inhibitory activity of the compounds of this invention. […] Following incubation, the wells are vacuum drained, leaving behind the cells and any bound VCAM. Quantitation of bound VCAM is determined by adding an appropriate calorimetric substrate for the enzyme conjugated to VCAM-IgG and determining the amount of reaction product. […] 12. Read the 96-well plate in a Molecular Devices ELISA platereader at 405 nm. […]
pIC50: −log10 of the molar value.
Rule: pIC50 of 6 or more gives Met; anything lower gives Not met.

>>> print(df.to_string())
                                    molecule                               target_desc  discrete_label
 0  Cc1ccccc1NC(=O)Nc1ccc(NC(=O)CN(CCC(C)C)C(=O)CCCCC(=O)O)cc1 [CX13]  VLA-4 (Homo sapiens, UniProt P05556+P13612)             Met
 1  Cc1c(C(=O)Nc2ccc3c(c2)C(=O)N(CCC(=O)O)CC(=O)N3C)c(=O)n(-c2ccccc2)n1C [BX6]  VLA-4 (Homo sapiens, UniProt P05556+P13612)         Not met
 2  COc1cccc(C(=O)N(CCC(=O)O)CC(=O)N(CCC(C)C)CC(=O)Nc2ccc(NC(=O)c3c[nH]c4ccccc34)cc2)c1 [AX26]  VLA-4 (Homo sapiens, UniProt P05556+P13612)             Met
 3  Cc1ccccc1NC(=O)Nc1ccc(NC(=O)CN(CCC(C)C)C(=O)CN(CCC(=O)O)C(=O)CN2CCCCC2)cc1 [AX22]  VLA-4 (Homo sapiens, UniProt P05556+P13612)             Met
 4  Cc1ccccc1NC(=O)Nc1ccc(CC(=O)Nc2ccc3c(c2)CN(CCC(=O)O)C(=O)CN3CCC(=O)O)cc1 [BX71]  VLA-4 (Homo sapiens, UniProt P05556+P13612)             Met
 5  Cc1ccccc1NC(=O)Nc1ccc(CC(=O)Nc2cccc(OCCCCC(=O)O)c2)cc1 [RX4]  VLA-4 (Homo sapiens, UniProt P05556+P13612)         Not met
 6  COc1ccc([C@H](CC(=O)O)NC(=O)C(CC(=O)Nc2ccc(NC(=O)Nc3ncccc3C)cc2)CC(C)C)cc1OC (stereo partly drawn) [SX46]  VLA-4 (Homo sapiens, UniProt P05556+P13612)             Met
 7  Cc1ccccc1NC(=O)Nc1ccc(CC(=O)Nc2ccc3c(c2)C(=O)N(CC(C)C(=O)O)CC(=O)N3C)cc1 (stereo not drawn) [BX50]  VLA-4 (Homo sapiens, UniProt P05556+P13612)             Met
 8  CN1C(=O)CN(CCC(=O)O)C(=O)c2cc(NC(=O)Cc3ccc(NC(=O)c4ccco4)cc3)ccc21 [BX12]  VLA-4 (Homo sapiens, UniProt P05556+P13612)         Not met
 9  Cc1ccccc1NC(=O)Nc1ccc(CC(=O)Nc2ccc3c(c2)C(=O)N(C)CC(=O)N3CCC(=O)O)cc1 [BX42]  VLA-4 (Homo sapiens, UniProt P05556+P13612)             Met
10  Cc1ccccc1NC(=O)Nc1ccc(NC(=O)CN(CCC(C)C)C(=O)CN(CCC(=O)O)C(=O)CN2CCOCC2)cc1 [AX42]  VLA-4 (Homo sapiens, UniProt P05556+P13612)             Met
11  CN1C(=O)CN(CCC(=O)O)C(=O)c2cc(NC(=O)Cc3ccc(NC(=O)c4c[nH]c5ccccc45)cc3)ccc21 [BX64]  VLA-4 (Homo sapiens, UniProt P05556+P13612)             Met
12  CC(C)CN(CC(=O)Nc1ccc(NC(=O)Nc2ccccc2)cc1)C(=O)CN(CCC(=O)O)C(=O)Cc1ccccc1 [AX24]  VLA-4 (Homo sapiens, UniProt P05556+P13612)             Met
13  COc1ccc(NC(=O)Cc2ccc(NC(=O)Nc3ncccc3C)cc2)cc1OCCCC(=O)O [RX7]  VLA-4 (Homo sapiens, UniProt P05556+P13612)         Not met
